Here, each record is paired with measured Percentage of release efficiency (%) Ovarian cancer tissue (A2780) data.
# TEST_NAME: Tumor homogenate activation efficiency, ovarian cancer tissue (Examples 28, 37)
# Assay type: in vitro ADME
# EXPERIMENTAL_SETUP: pH 5.0, 37° C., 2 h; Table 10
Where a SMILES comes first, the peptide text is derived from it. The star is where a group is joined. NEt(2-(20S-CPT-7-yl)ethyl) = CCN(CCc1c2c(nc3ccccc13)-c1cc3c(c(=O)n1C2)COC(=O)[C@]3(O)CC)*; X8 = CC[C@@]1(O)C(=O)OCc2c1cc1n(c2=O)Cc2c-1nc1ccccc1c2CCN(C1CCCC1)*; X4 = CCCN(CCc1c2c(nc3ccccc13)-c1cc3c(c(=O)n1C2)COC(=O)[C@]3(O)CC)*; Propanoyl(3-maleimido) = O=C1C=CC(=O)N1CCC(=O)*; PEG6 = NCCOCCOCCOCCOCCOCCOCCC(=O)O
RESULT_TYPE: Percentage of release efficiency (%) Ovarian cancer tissue (A2780)

{"columns": ["COMPOUND", "UNIT_SYMBOL", "OBSERVED"],
 "data": [
  ["CCN(CCc1c2c(nc3ccccc13)-c1cc3c(c(=O)n1C2)COC(=O)[C@]3(O)CC)C(=O)[C@H](CC(C)C)NC(=O)[C@H](CC(N)=O)NC(=O)[C@H](C)NC(=O)[C@H](C)NC(=O)CCOCCOCCOCCOCCOCCOCCNC(=O)CCN1C(=O)C=CC1=O [MI-6PEG-AANL-D2] ({Propanoyl(3-maleimido)-PEG6}-AANL-{NEt(2-(20S-CPT-7-yl)ethyl)})", "%", 71.3],
  ["CC[C@@]1(O)C(=O)OCc2c1cc1n(c2=O)Cc2c-1nc1ccccc1c2CCN(C(=O)[C@H](CC(C)C)NC(=O)[C@H](CC(N)=O)NC(=O)[C@H](C)NC(=O)[C@H](C)NC(=O)CCOCCOCCOCCOCCOCCOCCNC(=O)CCN1C(=O)C=CC1=O)C1CCCC1 [MI-6PEG-AANL-D8] ({Propanoyl(3-maleimido)-PEG6}-AANL-X8)", "%", 71],
  ["CCCN(CCc1c2c(nc3ccccc13)-c1cc3c(c(=O)n1C2)COC(=O)[C@]3(O)CC)C(=O)[C@H](CC(C)C)NC(=O)[C@H](CC(N)=O)NC(=O)[C@H](C)NC(=O)[C@H](C)NC(=O)CCOCCOCCOCCOCCOCCOCCNC(=O)CCN1C(=O)C=CC1=O [MI-6PEG-AANL-D3] ({Propanoyl(3-maleimido)-PEG6}-AANL-X4)", "%", 69.5]
]}

====

The following compounds are shown together with reported Mouse weight (%) values.
# Tested on: colo320 colorectal cancer tumor model
# EXPERIMENTAL_SETUP: 5 mg/kg once a week for four weeks; Table 3

{"columns": ["COMPOUND", "TARGET_ENTITY", "Mouse weight (%)"],
 "data": [
  ["CCCCNCCc1c2c(nc3ccccc13)-c1cc3c(c(=O)n1C2)COC(=O)[C@]3(O)CC [D4]", "colo320 colorectal cancer tumor model", "+5%"],
  ["CCCNCCc1c2c(nc3ccccc13)-c1cc3c(c(=O)n1C2)COC(=O)[C@]3(O)CC [D3]", "colo320 colorectal cancer tumor model", "+7%"],
  ["CC[C@@]1(O)C(=O)OCc2c1cc1n(c2=O)Cc2c-1nc1ccccc1c2CCNCC(C)C [D5]", "colo320 colorectal cancer tumor model", "+8%"]
]}

====

# TEST_NAME: MTD determination in mice (Examples 27, 36, 44)
# Assay type: in vivo
# EXPERIMENTAL_SETUP: mice, monitored for 14 d; Table 4
RESULT_TYPE: MTD (mg/kg)

{"columns": ["COMPOUND", "OBSERVED"],
 "data": [
  ["CC[C@@]1(O)C(=O)OCc2c1cc1n(c2=O)Cc2c-1nc1ccccc1c2CCNC1CC1", 10],
  ["CCNCCc1c2c(nc3ccccc13)-c1cc3c(c(=O)n1C2)COC(=O)[C@]3(O)CC [D2]", 25],
  ["CCCNCCc1c2c(nc3ccccc13)-c1cc3c(c(=O)n1C2)COC(=O)[C@]3(O)CC", 25],
  ["CC[C@@]1(O)C(=O)OCc2c1cc1n(c2=O)Cc2c-1nc1ccccc1c2CCNCC(C)C", 30]
]}

Provenance of the data: patent US20250235545A1
